- Test system: PC-3 prostate
- experimental-protocol: NCI tumour cell line growth inhibition, 48 h
Peptide text beside a SMILES is read from it. * marks the point of attachment. Boc = CC(C)(C)OC(=O)*; OBn = c1ccc(CO*)cc1
value-type: TGI

Worked set:
Test system PC-3 prostate; read-out TGI; what value for `O=[N+]([O-])c1ccc2[nH]ncc2c1Cl` ? 90.7 µM

Value wanted: TGI (PC-3 prostate) of entry `O=c1c2cccnc2cc(-c2ccccc2)n1CCO` > 100 µM

Missing value: TGI, PC-3 prostate, entry `CN(C)CCCCN1c2ccccc2Sc2cc(N=[N+]=[N-])ccc21` . Fill in? 4.22 µM

API: value(readout= TGI, system= PC-3 prostate, query= O=C(O)c1ccc2c(c1)CC1(C2)Cc2ccccc2C1=O (stereo not given) ) > 100 µM

Report TGI for `CSC1=N/C(=C\c2ccco2)C(=O)N1CN1CCCCC1` tested on PC-3 prostate. > 100 µM

---
// fetch PC-3 prostate TGI for `Cc1occc1C(=S)Nc1ccc(Cl)c(/C=N/OC(C)C)c1` 47.3 µM

For the record CCCCCCCCC/C=C1\CC(CO)(COC(=O)C2CCCCC2)OC1=O (stereo not given) , what value of TGI is listed for PC-3 prostate? 40.4 µM

PC-3 prostate / TGI / CC(=O)OCC1OC(N2C(C)=C(C(C)=O)C(c3ccco3)C(C#N)=C2S)C(OC(C)=O)C(OC(C)=O)C1OC(C)=O (stereo not given) : value? > 100 µM

Recall the recorded TGI for `NNc1nc2ccccc2s1` with PC-3 prostate and state it. > 100 µM

So what TGI did `CC[Si](CC)(CC)OC[C@]1([C@@H]2COC(C)(C)O2)CC=CC(=O)O1` get with PC-3 prostate? > 100 µM

Form: Entry = CC(NC(=O)CNC(=O)OC(C)(C)C)C(=O)NC(Cc1ccccc1)C(=O)OCc1ccccc1 (stereo not drawn) (Boc-Gly-Ala-Phe-OBn; configuration not given here) | System = PC-3 prostate | TGI = ____ > 100 µM

What TGI appears in the records for this molecule with PC-3 prostate? `CCOP(=O)(OCC)c1ccc(=O)[nH]c1-c1cccs1` > 100 µM

Values were extracted from PubChem BioAssay (NCI).
